System: Human umbilical vein endothelial cells (HUVEC)
assay-notes: LDH release cytotoxicity in HUVEC
Type: cell-based
condition-description: HUVEC, 10 μM, 48 h, relative to vehicle
Description: Additional compounds have also been tested for their ability to inhibit both TNF-α-induced NF-κB—expression and PMA-induced AP-1 expression. In both tests, the compound was added for 1 h, then the appropriate inducer was added, and luciferase activity was monitored 24 h later. […] Following treatment, the media from the VSMC and HUVEC incubations were removed, and the amount of lactate dehydrogenase (LDH) released into the medium was determined with a commercial kit. […]
Marks after values point to notes of the source that are not given here.
recorded-endpoint: LDH release % Increase HUVEC

Item under review: Cc1ccccc1-n1c(-c2cc(-c3ccncc3)c(N3CCOCC3)s2)nc2ccccc2c1=O [PMCR188] . Reported LDH release % Increase HUVEC?
160# %

# input molecule: COC(=O)Nc1nc(-c2ccccc2)c(-c2nc3ccccc3c(=O)n2-c2ccccc2Cl)s1 [PMCR122] ; wanted: its LDH release % Increase HUVEC
37# %

Using the record for Cc1cccc(-n2c(-c3sc(NC(=O)c4ccccc4)nc3-c3ccccc3)nc3ccccc3c2=O)c1 [PMCR45] , report its LDH release % Increase HUVEC.
123# %

Name the reported LDH release % Increase HUVEC value associated with the molecule CC(=O)c1ccc(-n2c(-c3cc(-c4ccncc4)c(N4CCOCC4)s3)nc3ccccc3c2=O)cc1 [PMCR242]
61# %

Need LDH release % Increase HUVEC of O=c1c2ccccc2nc(-c2cc(-c3ccncc3)c(N3CCOCC3)s2)n1-c1ccc(Cl)cc1 [PMCR236] , thanks.
39# %

For the molecule CNc1nc(-c2ccccc2)c(-c2nc3ccccc3c(=O)n2-c2ccccc2OC)s1 [PMCR75] , what LDH release % Increase HUVEC is on record?
15%

Need LDH release % Increase HUVEC, item O=c1c2ccccc2nc(-c2cc(-c3ccncc3)c(N3CCOCC3)s2)n1-c1ccccc1Cl [PMCR224]
28# %

Record request: LDH release % Increase HUVEC value, item CCOC(=O)Nc1nc(-c2ccccc2)c(-c2nc3ccccc3c(=O)n2-c2ccccc2C)s1 [PMCR25]
59# %
